Biological target: T1, formyl peptide receptor 2 (FPR2) (UniProt P25090 1-351, limits assumed)
T1 sequence (looked up): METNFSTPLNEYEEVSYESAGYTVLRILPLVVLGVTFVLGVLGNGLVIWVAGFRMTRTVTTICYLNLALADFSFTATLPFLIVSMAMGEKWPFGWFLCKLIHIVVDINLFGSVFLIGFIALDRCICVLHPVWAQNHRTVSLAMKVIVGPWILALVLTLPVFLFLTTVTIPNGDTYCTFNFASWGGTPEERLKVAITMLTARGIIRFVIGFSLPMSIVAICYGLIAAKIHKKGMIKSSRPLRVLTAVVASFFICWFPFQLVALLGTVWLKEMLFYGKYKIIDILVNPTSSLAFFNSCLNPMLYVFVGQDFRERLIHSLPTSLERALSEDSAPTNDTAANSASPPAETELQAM
Assay: cell-based or functional assay
ASSAY METRIC: EC50 for [Ca2+]

BINDER	ASSAY METRIC	RESULT
IKFKPM (HELM PEPTIDE1{I.K.F.K.P.[dM].[am]}$$$$V2.0; N-terminus assumed; SMILES CC[C@H](C)[C@H](N)C(=O)N[C@@H](CCCCN)C(=O)N[C@@H](Cc1ccccc1)C(=O)N[C@@H](CCCCN)C(=O)N1CCC[C@H]1C(=O)N[C@H](CCSC)C(N)=O) [peptide of SEQ ID NO 133]	EC50 for [Ca2+]	< 10 nM

Consider the record given below.
Supply EC50 for [Ca2+] value. Item: RMRYWYM (HELM PEPTIDE1{[CCCC(=O)[*:2]].R.M.R.Y.W.Y.[dM].[am]}$$$$V2.0; SMILES CCCC(=O)N[C@@H](CCCNC(=N)N)C(=O)N[C@@H](CCSC)C(=O)N[C@@H](CCCNC(=N)N)C(=O)N[C@@H](Cc1ccc(O)cc1)C(=O)N[C@@H](Cc1c[nH]c2ccccc12)C(=O)N[C@@H](Cc1ccc(O)cc1)C(=O)N[C@H](CCSC)C(N)=O) [peptide of SEQ ID NO 83]
< 10 nM
